# Tested on: Radical scavenging activity
# measurement description: Antioxidant activity assessed as DPPH radical scavenging activity incubated for 20 mins under dark condition by spectrophotometric analysis
# Format: functional
readout type: EC50 (µM)
Answers are plain numbers, in µM.

Solved cases below.
COc1cc(C[C@@H](CO[C@@H]2O[C@H](CO)[C@@H](O)[C@H](O)[C@H]2O)[C@H](CO[C@@H]2O[C@H](CO)[C@@H](O)[C@H](O)[C@H]2O)Cc2ccc(O)c(OC)c2)ccc1O    124
COc1cc(C[C@H](CO[C@@H]2O[C@H](CO)[C@@H](O)[C@H](O)[C@H]2O)[C@@H](CO[C@@H]2O[C@H](CO)[C@@H](O)[C@H](O)[C@H]2O)Cc2ccc(O)c(OC)c2)ccc1O (stereo in doubt; form 1) [(+)-SECOISOLARICIRESINOLDIGLUCOSIDE]    83.9
Cc1c(C)c2c(c(C)c1O)CC[C@@](C)(CCC[C@H](C)CCC[C@H](C)CCCC(C)C)O2 [ALPHA-TOCOPHEROL]    133
COc1cc(C[C@H](CO[C@@H]2O[C@H](CO)[C@@H](O)[C@H](O)[C@H]2O)[C@@H](CO[C@@H]2O[C@H](CO)[C@@H](O)[C@H](O)[C@H]2O)Cc2ccc(O)c(OC)c2)ccc1O (stereo in doubt; form 2) [(+)-SECOISOLARICIRESINOLDIGLUCOSIDE]    158

Moving on to the next molecule.
Give the measured EC50 of O=C1O[C@H]([C@@H](O)CO)C(O)=C1O [ASCORBIC ACID] . 440

###

# measurement description: Antioxidant activity assessed as reduction of K3FeCN6 by spectrophotometric analysis in presence of FeCl3
# Format: functional
Mark each entry true if its EC50 sits below 300 µM, and false for all others.

In the record for COc1cc(C[C@H](CO[C@@H]2O[C@H](CO)[C@@H](O)[C@H](O)[C@H]2O)[C@@H](CO[C@@H]2O[C@H](CO)[C@@H](O)[C@H](O)[C@H]2O)Cc2ccc(O)c(OC)c2)ccc1O (stereo in doubt; form 1) [(+)-SECOISOLARICIRESINOLDIGLUCOSIDE] , is EC50 less than 300 µM? true

Take the compound Cc1c(C)c2c(c(C)c1O)CC[C@@](C)(CCC[C@H](C)CCC[C@H](C)CCCC(C)C)O2 [ALPHA-TOCOPHEROL] and say whether its EC50 is less than 300 µM. false

Report whether reported EC50 is lower than 300 µM (strictly) for `COc1cc(C[C@@H](CO[C@@H]2O[C@H](CO)[C@@H](O)[C@H](O)[C@H]2O)[C@H](CO[C@@H]2O[C@H](CO)[C@@H](O)[C@H](O)[C@H]2O)Cc2ccc(O)c(OC)c2)ccc1O` false

EC50 under 300 µM? Item: O=C1O[C@H]([C@@H](O)CO)C(O)=C1O [ASCORBIC ACID] false
